Hello, the source for this data is PubChem BioAssay (Tox21), in case you need it.

Assay: qHTS assay to identify small molecule antagonists of the retinoid-related orphan receptor gamma (ROR-gamma) signaling pathway - cell viability counter screen (AID 1159520); also: nearly all actives have a fitted effect of over 50% in size; also: potency is read from the fitted curve at half-maximal effect
Conditions: Tet-on RORgamma CHO cells viability, ATP luminescence, 16 h; series mostly up to 92.4 µM
Records with an inconclusive call do not appear. Activity calls are given as the source filed them. Calls follow the shape of the dose curve; as a rule, active = well fitted cell-killing curve with a large enough effect in the repeat runs; inconclusive = weak or mixed curves, or effect the other way; inactive = no such curve, though single readings can be large or run the other way.
MEASURED PROPERTY: Potency

smiles_text=Cc1ccc(N(SC(F)(Cl)Cl)S(=O)(=O)N(C)C)cc1 measured_property=Potency value_observed="6.11 µM (active)"
smiles_text=ClC(Cl)=C(c1ccc(Cl)cc1)c1ccccc1Cl measured_property=Potency value_observed=inactive
smiles_text=N#Cc1cc([N+](=O)[O-])ccc1N measured_property=Potency value_observed=inactive
smiles_text=O=[N+]([O-])c1c(Cl)c(Cl)cc(Cl)c1Cl measured_property=Potency value_observed=inactive
